Tested on: P. falciparum NF54 strain
Assay: P. falciparum NF54 growth assay, 3H-hypoxanthine incorporation (hit validation)
Format: cell-based, Plasmodium falciparum
Conditions: hit validation, NF54 confirmatory assay
Marks after values point to notes of the source that are not given here.
observationType: Comment (activity in words on retest)

Previously resolved entries follow.
[
  {
    "molecule": "CC(C)(C)CC(=O)N(Cc1ccc(NC(=O)c2ccc(C#N)cc2)cc1)CC(C)(C)CN",
    "Comment (activity in words on retest)": "Weakly active"
  },
  {
    "molecule": "Cc1ccc(S(=O)(=O)N2C[C@H](C)N(Cc3ccc(C(=O)NC4CC4)cc3)C[C@@H]2C)cc1 [Compound 15a]",
    "Comment (activity in words on retest)": "Hit"
  },
  {
    "molecule": "O=C(c1cccc(-c2noc(CN(CCN3CCCCC3)C(=O)c3ccccc3)n2)c1)N1CCCNCC1",
    "Comment (activity in words on retest)": "Validated hit"
  },
  {
    "molecule": "O=C(NCC(c1ccsc1)N1CCCCCC1)c1ccc(C(F)(F)F)cc1 (centres unmarked)",
    "Comment (activity in words on retest)": "Validated hit"
  }
]

Ask: So what's the measured Comment (activity in words on retest) for this one? COc1ccc(NC(=O)c2cnn(-c3ccccc3)c2-c2ccccc2)c(OC)c1
Reply: Weakly active

====

Tested on: P. falciparum 3D7 strain
Assay: P. falciparum 3D7 growth inhibition, DAPI imaging (HTS screen)
Assay type: cell-based
Details: Plasmodium falciparum, 3D7; read-out: Potency at HTS (3D7)
pEC50: −log10 of the molar value.
observationType: pEC50

Ask: Look up pEC50: CC(C)=CCN1CCC2(CC1)CN(C(=O)Nc1cccc(C#N)c1)c1ccc(C)cc12
Reply: > 6.00

====

System: P. falciparum NF54 strain
Experiment: P. falciparum NF54 growth assay, 3H-hypoxanthine incorporation (hit validation)
Type: cell-based, Plasmodium falciparum
Conditions: hit validation, NF54 confirmatory assay

[
  {
    "compound": "Cc1ccc(S(=O)(=O)N2CCN(Cc3ccc(C(=O)NC4CC4)cc3)CC2)cc1 [Compound 15c]",
    "Comment (activity in words on retest)": "Hit"
  },
  {
    "compound": "O=C(O)[C@@H]1Cc2c([nH]c3ccccc23)[C@@H](c2ccc(Cl)cc2Cl)N1 [Compound 14b]",
    "Comment (activity in words on retest)": "Hit"
  },
  {
    "compound": "O=C(O)[C@H]1Cc2c([nH]c3ccccc23)[C@H](c2ccc(Cl)cc2Cl)N1 [Compound 14d]",
    "Comment (activity in words on retest)": "Inactive"
  },
  {
    "compound": "CC(=O)N1CCN(Cc2coc(Cc3ccccc3)n2)CC1",
    "Comment (activity in words on retest)": "Inactive"
  }
]

====

System: P. falciparum NF54 strain
Experiment: P. falciparum NF54 growth assay, 3H-hypoxanthine incorporation (hit validation)
Format: cell-based, Plasmodium falciparum
Conditions: Plasmodium falciparum; negative logarithm of the molar EC50, NF54; read-out: pEC50 (NF54) (converted)
Measured EC50 of individual entries
Hi! Could you send only the number? It should be in µM, unit omitted.

Use these answered entries as a reference point.
[
  {
    "compound": "Cc1ccc(S(=O)(=O)N2C[C@H](C)N(Cc3ccc(C(=O)NC4CC4)cc3)C[C@@H]2C)cc1 [Compound 15a]",
    "observationType": "EC50",
    "reading": 0.0398
  },
  {
    "compound": "COc1ccc(NC(=O)c2cnn(-c3ccccc3)c2-c2ccccc2)c(OC)c1 [Compound 5]",
    "observationType": "EC50",
    "reading": 3.98
  }
]

Ask: Record O=C(Nc1cc(=O)[nH]c2nc(-c3ccccc3)nn12)C1CCCCC1 [Compound 7] : what is its EC50 with P. falciparum NF54 strain?
Reply: 0.501

Ask: Write down the reported EC50 of Cc1c(CO)c2ccccc2n1Cc1ccccc1C#N [Compound 1] , test system: P. falciparum NF54 strain.
Reply: 5.01

Ask: Quick check: EC50 on P. falciparum NF54 strain, item Cc1c(Cc2c(C)n(Cc3ccccc3C#N)c3ccccc23)c2ccccc2n1Cc1ccccc1C#N [Compound 2] ?
Reply: 0.794
